# target under test: HLA-A*02:06
# experiment: IEDB peptide-MHC binding, purified MHC/competitive/radioactivity; bounds were set here for any values at or beyond the usual limits of such assays
# measurement parameters: source organism: Mammarenavirus juninense
assay endpoint: IC50
Include the unit right after the number.

Prompt: Requested field: IC50. Item: KSGLFQFFV
Completion: 8.1 nM

###

# target under test: HLA-A*02:02
# experiment: IEDB peptide-MHC binding, cellular MHC/competitive/fluorescence; bounds were set here for any values at or beyond the usual limits of such assays
# measurement parameters: source organism: Vaccinia virus WR
pIC50 reference
Scale: pIC50 equals -log10([C]), with [C] in mol/L.

Example entries and their recorded answers appear below.
| record sequence | pIC50 |
| --- | --- |
| LAEYIRHRNT | 4.44 |
| ETMYLTMKA | 5.11 |
| FTELENKKV | 4.71 |
| LTQVKELGIA | 4.93 |
| NACDKHNKT | 4.75 |
| ITNILGGVL | 5.13 |
| IASAPQQLCT | 4.27 |
| PTSETMYLT | 4.98 |
| YVKNGTKGKL | 5.24 |
| AVYFKAKWLT | 4.57 |

Prompt: Requested field: pIC50. Item: TVKNVDIIDL
Completion: 4.50
